Parameter: LogP. Scope: all listed entries.
measurement protocol: Log P by HPLC on reversed phase columns (EEC directive 79/831 Annex V.A8)
Format: physicochemical
setup conditions: method [a]: LC-UV, acidic range, 0.1% formic acid in water and acetonitrile

Cc1c(C(=O)O)sc(Cl)c1Br | 2.80^[a]

Determine its reported LogP: `Cc1c(C(=O)N[C@H]2CCOC2=O)sc(Br)c1Cl`
2.42^[a]

Supply reported LogP belonging to this compound: `O=C(N[C@H]1CCSC1=O)c1sc(Cl)c(Cl)c1Br`
3.24^[a]

Name the recorded LogP of the item `O=C(O)c1cc(F)c(Cl)s1` in your answer.
1.89^[a]
